The values you see were collected from ChEMBL document CHEMBL3507680.

The entries below are paired with their reported cytotoxicity at 70.5 h.
- Experiment summary: Human HepG2 cell viability assay in 384 well format
- Assay type: toxicity, cell-based
- Design: dose 125 nL, time 70.5 hour; concentration not given beside the values
- Assay context: HepG2 cells, read-out: Inhibition

Molecule: CN(C)CC(=O)N1Cc2nc(C(=O)NCc3ccncc3)oc2C1
Value units: %
cytotoxicity at 70.5 h: -14.7
--
Molecule: CC(C)C1CN(C(=O)c2cc(F)cc3[nH]cnc23)CCS1 (stereo unspecified)
Value units: %
cytotoxicity at 70.5 h: -2.35
--
Molecule: CN(C)CCO[C@H]1CN(CC2CC2)[C@@H]2CCCO[C@H]12
Value units: %
cytotoxicity at 70.5 h: 11.6
--
Molecule: CC(C)Cn1cc(C(=O)NC2CCS(=O)(=O)C2)c2ccccc2c1=O (stereo unspecified)
Value units: %
cytotoxicity at 70.5 h: -13.3
--
Molecule: Cn1cc(C(=O)N2CCCCC2CCc2ccccc2)cn1 (stereo unspecified)
Value units: %
cytotoxicity at 70.5 h: -10.6
--
Molecule: CCc1cc(N2CCN(c3cnccn3)CC2)n2nc(C)c(C)c2n1
Value units: %
cytotoxicity at 70.5 h: 10.7
--
Molecule: COc1ccc(-c2noc([C@@H]3C[C@@H](O)CN3C3CCOCC3)n2)cc1
Value units: %
cytotoxicity at 70.5 h: 41.8
--
Molecule: CNC(=O)c1ccc2c(c1)C1(CCN(CCOC)CC1)C(=O)N2
Value units: %
cytotoxicity at 70.5 h: 0.0675
--
Molecule: CNc1cc(-c2cc(OC)c(OC)c(OC)c2)ncn1
Value units: %
cytotoxicity at 70.5 h: -6.66
--
Molecule: CCOc1cccc(CNC2CCCN(Cc3noc(C)n3)C2)c1 (stereo unspecified)
Value units: %
cytotoxicity at 70.5 h: -12.1
--
Molecule: CC(c1ccncc1)N1Cc2nc(N(C)C)ncc2C1=O (stereo unspecified)
Value units: %
cytotoxicity at 70.5 h: -2.18
--
Molecule: N#Cc1ccc(OCCN2CCc3cncnc3C2)cc1
Value units: %
cytotoxicity at 70.5 h: 0.4
--
Molecule: Cn1ccnc1CN1CCCN(C(=O)c2ccc3c(c2)OCO3)CC1
Value units: %
cytotoxicity at 70.5 h: -6.18
--
Molecule: COc1ccc(F)cc1C(=O)N1C[C@H]2C[C@H](OC)C[C@H]2C1
Value units: %
cytotoxicity at 70.5 h: -6.25
--
Molecule: CCNC(=O)Nc1ccc(N2CCC(OC)CC2)c(C(F)(F)F)c1
Value units: %
cytotoxicity at 70.5 h: -1.82
--
Molecule: O=C([C@@H]1COC[C@H]2CN(C3CCCC3)C[C@H]21)N1CCC(F)CC1
Value units: %
cytotoxicity at 70.5 h: -1.78
--
Molecule: CC(C)(NC(=O)Nc1cnn(CC2CCCO2)c1)c1nccs1 (stereo unspecified)
Value units: %
cytotoxicity at 70.5 h: -6.03
--
Molecule: O=C(CCc1nccs1)N1CCN(c2ccc(Br)cn2)CC1
Value units: %
cytotoxicity at 70.5 h: 22.4
--
Molecule: Cn1cc(C2SCC(=O)Nc3c2c(=O)[nH]n3C2CCOCC2)cn1 (stereo unspecified)
Value units: %
cytotoxicity at 70.5 h: 17.2
--
Molecule: CS(=O)(=O)N1CCOCC2(CCN(C(=O)c3ccco3)CC2)C1
Value units: %
cytotoxicity at 70.5 h: -8.61
--
Molecule: CN(C)CCn1nc(C2CCN(S(=O)(=O)N(C)C)C2)c2cccnc21 (stereo unspecified)
Value units: %
cytotoxicity at 70.5 h: -3.16
--
Molecule: CC(C)OCCC1CCCCN1S(N)(=O)=O (stereo unspecified)
Value units: %
cytotoxicity at 70.5 h: 10.9
--
Molecule: COCc1cc(C[C@@H]2CC[C@H](O)[C@@H](CN(CC(C)C)CC(C)C)O2)no1
Value units: %
cytotoxicity at 70.5 h: -0.301
--
Molecule: CNC(=O)[C@@H]1C[C@@H](N)CN1C1CCN(Cc2ccccn2)CC1
Value units: %
cytotoxicity at 70.5 h: 20.3
--
Molecule: CC(C)CCN1C[C@H]2C[C@H](C(=O)Nc3cccnc3)[C@@H](C1)O2
Value units: %
cytotoxicity at 70.5 h: -6.02
--
Molecule: Cn1cc(CNc2ccc(CCN3CCC(C(N)=O)CC3)cc2)cn1
Value units: %
cytotoxicity at 70.5 h: 13.6
--
Molecule: O=C(c1ccccc1)N1CCO[C@@H]2CN(c3ncccn3)C[C@@H]2C1
Value units: %
cytotoxicity at 70.5 h: -6.94
--
Molecule: COCCC1(CNC(=O)NCC2CCC2)CCC1
Value units: %
cytotoxicity at 70.5 h: -0.0221
--
Molecule: CCC(Nc1nc(C)nc2c1cnn2C)c1ncnn1CC (stereo unspecified)
Value units: %
cytotoxicity at 70.5 h: -1.28
--
Molecule: Cc1ccc(CN(CCN(C)C)Cc2ncc[nH]2)s1
Value units: %
cytotoxicity at 70.5 h: -5.13
--
Molecule: CCc1ncc2c(n1)CN(CC(=O)Nc1ccc(Cl)cn1)CC2
Value units: %
cytotoxicity at 70.5 h: 32.4
--
Molecule: Cc1ccc2nc(C)cc(C(=O)N[C@H]3COC[C@@H]3N3CCOCC3)c2c1
Value units: %
cytotoxicity at 70.5 h: -6.73
--
Molecule: Cc1cc(CNC(=O)N2CCN(c3nc(C)c(C)s3)CC2)no1
Value units: %
cytotoxicity at 70.5 h: 7.38
--
Molecule: CN(Cc1ccccn1)C(=O)c1cc(CN2CCC(O)CC2)on1
Value units: %
cytotoxicity at 70.5 h: -16.8
--
Molecule: O=C(NCCCF)N1CCC(n2ccc(C(F)(F)F)n2)CC1
Value units: %
cytotoxicity at 70.5 h: -104
--
Molecule: CCOC(=O)C1(NCC(=O)Nc2cc(C)ccc2OC)CCCC1
Value units: %
cytotoxicity at 70.5 h: 21.1
--
Molecule: CCc1n[nH]c(C2CN(C(=O)c3cnc(C)cn3)CCO2)n1 (stereo unspecified)
Value units: %
cytotoxicity at 70.5 h: -10.6
--
Molecule: O=C1CC2(CCSC2)C(=O)N1Cc1ncc(-c2cccc(F)c2)o1 (stereo unspecified)
Value units: %
cytotoxicity at 70.5 h: -1.19
--
Molecule: CC(C)CCC(=O)N1CCN(C(=O)c2ccc3nccn3c2)CC1
Value units: %
cytotoxicity at 70.5 h: 15.2
--
Molecule: Cc1nnc(CN2CCOC(c3ccc(Cl)c(Cl)c3)C2)o1 (stereo unspecified)
Value units: %
cytotoxicity at 70.5 h: -3.49
--
Molecule: COc1ccccc1C1CNCCN1C(C)=O (stereo unspecified)
Value units: %
cytotoxicity at 70.5 h: -15.3
--
Molecule: Cc1noc(CN(C)Cc2ccc3c(c2)OCO3)n1
Value units: %
cytotoxicity at 70.5 h: 12.4
--
Molecule: CCc1ccc(C(=O)N2CCC(c3nncn3CC)CC2)o1
Value units: %
cytotoxicity at 70.5 h: -6.22
--
Molecule: Cc1ccc(NCc2cncc3c2CCN(Cc2ccccn2)C3)nn1
Value units: %
cytotoxicity at 70.5 h: -13.4
--
Molecule: Cc1nnc(C(C)N2CCN(Cc3ccc(C(F)(F)F)cc3)CC2)o1 (stereo unspecified)
Value units: %
cytotoxicity at 70.5 h: -1.82
--
Molecule: Cc1ccc(C(=O)CCC(=O)N2CCC(c3nncn3C)CC2)cc1
Value units: %
cytotoxicity at 70.5 h: -4.47
